Cited source for all entries: patent US20250388544A1

# STUDY SYSTEM: hMeprin α (Homo sapiens, UniProt Q16819)
# Sequence (Q16819 66-746): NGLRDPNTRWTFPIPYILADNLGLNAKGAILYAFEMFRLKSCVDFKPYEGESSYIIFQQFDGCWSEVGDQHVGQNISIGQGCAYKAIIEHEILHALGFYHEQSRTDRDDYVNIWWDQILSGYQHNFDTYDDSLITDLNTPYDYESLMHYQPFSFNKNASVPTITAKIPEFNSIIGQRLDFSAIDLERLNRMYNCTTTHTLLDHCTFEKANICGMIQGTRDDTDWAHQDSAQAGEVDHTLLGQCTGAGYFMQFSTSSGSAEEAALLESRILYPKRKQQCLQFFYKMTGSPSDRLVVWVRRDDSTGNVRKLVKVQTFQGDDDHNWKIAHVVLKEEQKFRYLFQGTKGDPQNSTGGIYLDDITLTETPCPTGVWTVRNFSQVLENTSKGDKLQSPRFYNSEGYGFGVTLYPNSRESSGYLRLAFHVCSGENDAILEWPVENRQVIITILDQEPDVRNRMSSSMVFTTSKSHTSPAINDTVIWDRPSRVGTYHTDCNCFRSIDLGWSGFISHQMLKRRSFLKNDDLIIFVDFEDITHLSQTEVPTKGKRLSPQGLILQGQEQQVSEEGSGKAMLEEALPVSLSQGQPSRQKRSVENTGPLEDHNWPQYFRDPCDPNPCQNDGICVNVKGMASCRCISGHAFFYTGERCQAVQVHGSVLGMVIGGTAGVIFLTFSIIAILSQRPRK

{"MOLECULE": "O=C(Cn1c(-c2ccc(Cl)c(O)c2F)nc2cc(C(=O)O)ccc21)NO", "Ki (nM)": 435}
{"MOLECULE": "O=C(Cc1c(C2CCCC2)n[nH]c1-c1ccccc1)NO", "Ki (nM)": 6}
{"MOLECULE": "O=C(Cc1c(-c2ccccc2)nn(Cc2ccc3c(c2)OCO3)c1-c1ccccc1)NO", "Ki (nM)": 0.59}
{"MOLECULE": "O=C(Cc1c(-c2ccc3c(c2)OCO3)n[nH]c1-c1ccc2c(c1)OCO2)NO", "Ki (nM)": 0.64}
{"MOLECULE": "COc1ccc(-c2n[nH]c(-c3ccccc3)c2CC(=O)NO)cc1", "Ki (nM)": 1}
{"MOLECULE": "O=C(Cc1c(-c2c[nH]nc2C(F)(F)F)n[nH]c1-c1ccccc1)NO", "Ki (nM)": 2}
{"MOLECULE": "O=C(Cc1c(-c2ccc3c(c2)OCO3)n[nH]c1-c1ccc(C(=O)O)cc1)NO", "Ki (nM)": 10}
{"MOLECULE": "O=C(Cc1c(-c2cccc(C(=O)O)c2)[nH]nc1[C@H]1CC[C@H](C(=O)O)CC1)NO", "Ki (nM)": 20}
{"MOLECULE": "O=C(Cc1c(-c2ccc3c(c2)OCO3)n[nH]c1-c1ccccc1)NO", "Ki (nM)": 1}
{"MOLECULE": "O=C(Cc1c(-c2cc(O)no2)n[nH]c1-c1ccccc1)NO", "Ki (nM)": 16}
{"MOLECULE": "O=C(Cc1c(-c2ccc(Cl)c(O)c2F)n[nH]c1-c1ccc(Cl)c(O)c1F)NO", "Ki (nM)": 4}
{"MOLECULE": "O=C(Cc1c(-c2ccccc2)[nH]nc1[C@H]1CC[C@@H](C(=O)O)CC1)NO", "Ki (nM)": 10}
{"MOLECULE": "O=C(Cc1c(-c2ccccc2)nn(Cc2ccc(Cl)c(O)c2F)c1-c1ccccc1)NO", "Ki (nM)": 0.08}
{"MOLECULE": "O=C(NO)C1Cc2ccccc2-c2[nH]nc(-c3ccccc3)c21 (stereo not drawn)", "Ki (nM)": 61}
{"MOLECULE": "O=C(Cc1c(-c2ccc(Cl)c(O)c2F)n[nH]c1-c1ccccc1)NO", "Ki (nM)": 2}
{"MOLECULE": "O=C(Cc1c(-c2ccccc2)noc1-c1ccccc1)NO", "Ki (nM)": 4}
{"MOLECULE": "O=C(Cc1c(-c2cccc(-c3nnn[nH]3)c2)n[nH]c1-c1ccccc1)NO", "Ki (nM)": 0.71}
{"MOLECULE": "COc1cccc(-c2n[nH]c(-c3ccccc3)c2CC(=O)NO)c1", "Ki (nM)": 1}
{"MOLECULE": "O=C(Cc1c(Cc2ccccc2)n[nH]c1-c1ccccc1)NO", "Ki (nM)": 70}
{"MOLECULE": "O=C(Cc1c(-c2cccc(C(=O)O)c2)n[nH]c1-c1ccccc1)NO", "Ki (nM)": 8}
{"MOLECULE": "COc1ccc(-c2n[nH]c(-c3ccccc3)c2CC(=O)NO)cc1OC", "Ki (nM)": 0.71}
{"MOLECULE": "O=C(Cn1c(-c2ccc(Cl)c(O)c2F)nc2c(C(=O)O)cccc21)NO", "Ki (nM)": 903}
{"MOLECULE": "O=C(CCn1c(-c2ccccc2)nc2ccccc21)NO", "Ki (nM)": 701}
{"MOLECULE": "O=C(NO)C1c2ccccc2-c2[nH]nc(-c3ccccc3)c21 (stereo not drawn)", "Ki (nM)": 39}
{"MOLECULE": "O=C(Cc1c(-c2cccc(C(=O)O)c2)n[nH]c1-c1ccc(Cl)c(O)c1F)NO", "Ki (nM)": 5}
{"MOLECULE": "O=C(Cc1c(-c2ccccc2)[nH]nc1[C@H]1CC[C@H](C(=O)O)CC1)NO", "Ki (nM)": 12}
{"MOLECULE": "COc1ccc(-c2nc3ccccc3n2CC(=O)NO)cc1", "Ki (nM)": 94}
{"MOLECULE": "O=C(Cc1c(C2CCCC(C(=O)O)C2)n[nH]c1-c1ccccc1)NO (stereo not drawn)", "Ki (nM)": 1}
{"MOLECULE": "N#Cc1cccc(-c2n[nH]c(-c3ccccc3)c2CC(=O)NO)c1", "Ki (nM)": 5}
{"MOLECULE": "O=C(Cc1c(-c2ccc3c(c2)OCO3)n[nH]c1-c1cccc(C(=O)O)c1)NO", "Ki (nM)": 3}
{"MOLECULE": "O=C(Cc1c(-c2ccc(C(=O)O)cc2)n[nH]c1-c1ccccc1)NO", "Ki (nM)": 17}
{"MOLECULE": "N#Cc1ccc(-c2n[nH]c(-c3ccccc3)c2CC(=O)NO)cc1", "Ki (nM)": 14}
{"MOLECULE": "O=C(Cc1c(-c2cccc(C(=O)O)c2)n[nH]c1-c1cccc(C(=O)O)c1)NO", "Ki (nM)": 10}
{"MOLECULE": "O=C(Cc1c([C@@H]2CCCC[C@@H]2C(=O)O)n[nH]c1-c1ccccc1)NO", "Ki (nM)": 0.26}
{"MOLECULE": "O=C(CCc1c(-c2ccccc2)n[nH]c1-c1ccccc1)NO", "Ki (nM)": 78}
{"MOLECULE": "O=C(CCc1c(-c2ccccc2)nn(Cc2ccc(Cl)c(O)c2F)c1-c1ccccc1)NO", "Ki (nM)": 0.15}

---

# STUDY SYSTEM: hMeprin α (Homo sapiens, UniProt Q16819)
# TEST DETAILS: Enzymatic assay, quenched peptide substrate cleavage, method B
# Format: biochemical
# RUN PARAMETERS: geometric mean (geometric SD factor in parentheses), read-out: Meprin alpha IC50
pIC50: −log10 of the molar value.
# cutoff 8 applies to pIC50; >= gives criterion met, < gives criterion not met

{"COMPOUND": "COc1ccc(-c2nc3ccccc3n2CC(=O)NO)cc1 [Example 15]", "ASSIGNED CATEGORY": "criterion not met"}
{"COMPOUND": "O=C(Cc1c(-c2ccccc2)nn(Cc2cccc(C(=O)O)c2)c1-c1ccccc1)NO [Example 41]", "ASSIGNED CATEGORY": "criterion met"}
{"COMPOUND": "O=C(Cc1c(-c2ccc(Cl)c(O)c2F)n[nH]c1-c1ccc(Cl)c(O)c1F)NO [Example 60]", "ASSIGNED CATEGORY": "criterion met"}
{"COMPOUND": "O=C(Cc1c(-c2ccccc2)n[nH]c1-c1ccccc1)NO [Example 1]", "ASSIGNED CATEGORY": "criterion met"}
{"COMPOUND": "O=C(NO)C1Cc2ccccc2-c2[nH]nc(-c3ccccc3)c21 (stereo not shown) [Example 68]", "ASSIGNED CATEGORY": "criterion not met"}

---

# STUDY SYSTEM: hMeprin α (Homo sapiens, UniProt Q16819)
# TEST DETAILS: Enzymatic assay, quenched peptide substrate cleavage, method A
# Type: biochemical
# RUN PARAMETERS: geometric mean (geometric SD factor in parentheses), read-out: Meprin alpha IC50

{"SMILES STR": "O=C(Cc1c(-c2ccccc2)nn(-c2ccc(C(=O)O)cc2)c1-c1ccccc1)NO", "IC50, nM": 21}
{"SMILES STR": "O=C(Cc1c(-c2ccccc2)noc1-c1ccccc1)NO", "IC50, nM": 7}
{"SMILES STR": "O=C(Cc1c(-c2ccccc2)n[nH]c1-c1ccccc1)NO", "IC50, nM": 4}
{"SMILES STR": "O=C(CCn1c(-c2ccccc2)nnc1-c1ccccc1)NO", "IC50, nM": 353}
{"SMILES STR": "O=C(Cc1c(-c2ccccc2)[nH]c2ccccc12)NO", "IC50, nM": 105}
{"SMILES STR": "O=C(Cn1c(-c2ccccc2)nc2ccccc21)NO", "IC50, nM": 173}
{"SMILES STR": "O=C(CNc1c(-c2ccc(C(=O)O)cc2)nc2ccccn12)NO", "IC50, nM": 2280}
{"SMILES STR": "O=C(Cn1c(-c2ccccc2)nc2cccnc21)NO", "IC50, nM": 273}
{"SMILES STR": "O=C(Cn1c(-c2ccccc2)ccc1-c1ccccc1)NO", "IC50, nM": 34}
{"SMILES STR": "O=C(CNc1c(-c2ccccc2)nc2ccccn12)NO", "IC50, nM": 793}
